- Tested on: Saccharomyces cerevisiae
- assay-text: Antifungal activity against Saccharomyces cerevisiae W303-1B after 48 hrs by broth microdilution assay
- Format: functional
Counter-ions that a name gives are not always drawn.

molecule	target-system	op	MIC / µM
CC/N=c1/cc2oc3cc(Nc4ccccc4)c4ccccc4c3nc-2cc1C	Saccharomyces cerevisiae	>	120
CC[N+](CC)=c1ccc2nc3c(cc(N)c4ccccc43)oc-2c1 [NILE BLUE HYDROCHLORIDE]	Saccharomyces cerevisiae	=	60
CC/N=c1/cc2oc3cc(NCCCC(=O)NC(C(=O)OC)C(C)C)c4ccccc4c3nc-2cc1C (centres undefined)	Saccharomyces cerevisiae	=	60
CC/N=c1/cc2oc3cc(NCCO)c4ccccc4c3nc-2cc1C	Saccharomyces cerevisiae	=	30
CC/N=c1/cc2oc3cc(NCCC(=O)NCC(=O)OC)c4ccccc4c3nc-2cc1C	Saccharomyces cerevisiae	=	120
CC/N=c1/cc2oc3cc(NCCC(=O)NC(Cc4ccccc4)C(=O)OC)c4ccccc4c3nc-2cc1C (centres undefined)	Saccharomyces cerevisiae	=	15
CC[N+](CC)=c1ccc2nc3c(cc(NCCCO)c4ccccc43)oc-2c1	Saccharomyces cerevisiae	=	120
C[N+](C)=c1ccc2nc3c(cc(Nc4ccccc4)c4ccccc43)oc-2c1	Saccharomyces cerevisiae	>	120
CCCNc1cc2oc3c/c(=N/CC)c(C)cc-3nc2c2cc3ccccc3cc12	Saccharomyces cerevisiae	=	15
